test system: HL-60; assay: Cytotoxicity against human HL60 cells assessed as decrease in cell viability after 4 days by MTT assay; assay type: functional, cell-based; conditions: HL-60, 96 h
Rule for this label: rule met means IC50 is less than 0.8 µM; rule not met means IC50 is at least 0.8 µM.

Problem: Hello, is IC50 of the following molecule strictly smaller than 0.8 µM? C=C1C[C@]23C[C@@]1(O)CC[C@H]2c1ccc(O)c(C)c1[C@@H]3Cn1cc(-c2ccc(C)cc2)nn1
Solution: rule not met

Problem: Hello, is IC50 of the following molecule strictly smaller than 0.8 µM? C=C1C(=O)[C@]23C[C@@]1(O)CC[C@H]2c1ccc(O)c(C)c1[C@@H]3Cn1cc(-c2ccc(Br)cc2)nn1
Solution: rule met

Problem: Hello, is IC50 of the following molecule strictly smaller than 0.8 µM? Cc1c(O)ccc2c1[C@H](Cn1cc(-c3ccc(Cl)cc3)nn1)[C@@]13CC(=O)[C@@](C)(CC[C@@H]21)C3
Solution: rule not met

Problem: Hello, is IC50 of the following molecule strictly smaller than 0.8 µM? C=C1C[C@]23C[C@@]1(O)CC[C@H]2c1cc(Br)c(O)c(C)c1[C@@H]3Cn1cc(-c2ccc(C(F)(F)F)cc2)nn1
Solution: rule not met

Problem: Hello, is IC50 of the following molecule strictly smaller than 0.8 µM? C=C1C[C@]23C[C@@]1(O)CC[C@@H]2c1cccc(C)c1[C@@H]3Cn1cc(-c2ccc(C)cc2)nn1
Solution: rule not met

Problem: Hello, is IC50 of the following molecule strictly smaller than 0.8 µM? COc1ccc(-c2cn(C[C@H]3c4c(ccc(O)c4C)[C@@H]4CC[C@@]5(C)C[C@]43CC5=O)nn2)cc1
Solution: rule not met

Problem: Hello, is IC50 of the following molecule strictly smaller than 0.8 µM? C=C1C(=O)[C@]23C[C@@]1(O)CC[C@H]2c1ccc(O)c(C)c1[C@@H]3Cn1cc(-c2ccc(OC)cc2)nn1
Solution: rule not met

Problem: Hello, is IC50 of the following molecule strictly smaller than 0.8 µM? C=C1C(=O)[C@]23C[C@@]1(O)CC[C@H]2c1ccc(O)c(C)c1[C@@H]3Cn1cc(-c2ccc(C(F)(F)F)cc2)nn1
Solution: rule met

Problem: Hello, is IC50 of the following molecule strictly smaller than 0.8 µM? C=C1C[C@]23C[C@@]1(O)CC[C@H]2c1cc(Br)c(O)c(C)c1[C@@H]3Cn1cc(-c2ccccc2)nn1
Solution: rule not met

Problem: Hello, is IC50 of the following molecule strictly smaller than 0.8 µM? C=C1C(=O)[C@]23C[C@@]1(O)CC[C@H]2c1ccc(O)c(C)c1[C@@H]3Cn1cc(-c2ccccc2)nn1
Solution: rule met

Problem: Hello, is IC50 of the following molecule strictly smaller than 0.8 µM? C=C1C[C@]23C[C@@]1(O)CC[C@H]2c1cc(Br)c(O)c(C)c1[C@@H]3Cn1cc(-c2ccc(F)cc2)nn1
Solution: rule not met

Problem: Hello, is IC50 of the following molecule strictly smaller than 0.8 µM? C=C1C[C@]23C[C@@]1(O)CC[C@H]2c1cc(Br)c(O)c(C)c1[C@@H]3Cn1cc(-c2ccc(Cl)cc2)nn1
Solution: rule not met

Problem: Hello, is IC50 of the following molecule strictly smaller than 0.8 µM? Cc1ccc(S(=O)(=O)Oc2ccc3c(c2C)[C@H](Cn2cc(-c4ccccc4)nn2)[C@@]24CC(=O)[C@@](C)(CC[C@@H]32)C4)cc1
Solution: rule not met

Problem: Hello, is IC50 of the following molecule strictly smaller than 0.8 µM? C=C1C[C@]23C[C@@]1(O)CC[C@@H]2c1cccc(C)c1[C@@H]3Cn1cc(-c2ccc(C(F)(F)F)cc2)nn1
Solution: rule not met

Problem: Hello, is IC50 of the following molecule strictly smaller than 0.8 µM? C=C1C(=O)[C@]23C[C@@]1(O)CC[C@H]2c1ccc(OS(=O)(=O)c2ccc(C)cc2)c(C)c1[C@@H]3Cn1cc(-c2ccc(Br)cc2)nn1
Solution: rule not met

Problem: Hello, is IC50 of the following molecule strictly smaller than 0.8 µM? C=C1C[C@]23C[C@@]1(O)CC[C@H]2c1cc(Br)c(O)c(C)c1[C@@H]3Cn1cc(-c2ccccn2)nn1
Solution: rule not met

Problem: Hello, is IC50 of the following molecule strictly smaller than 0.8 µM? C=C1C[C@]23C[C@@]1(O)CC[C@H]2c1ccc(O)c(C)c1[C@@H]3Cn1cc(-c2ccc(Cl)cc2)nn1
Solution: rule not met

Problem: Hello, is IC50 of the following molecule strictly smaller than 0.8 µM? Cc1ccc(S(=O)(=O)Oc2ccc3c(c2C)[C@H](Cn2cc(-c4ccccn4)nn2)[C@@]24CC(=O)[C@@](C)(CC[C@@H]32)C4)cc1
Solution: rule not met
